molecular target: COX-2 (Homo sapiens, UniProt P35354); construct: purchased Cayman Chemical 760151; test: COX-2 inhibitory activity (COX Activity Assay kit) and kinetics; assay type: biochemical; details: mean ± SD, triplicate
Sequence (P35354 18-604): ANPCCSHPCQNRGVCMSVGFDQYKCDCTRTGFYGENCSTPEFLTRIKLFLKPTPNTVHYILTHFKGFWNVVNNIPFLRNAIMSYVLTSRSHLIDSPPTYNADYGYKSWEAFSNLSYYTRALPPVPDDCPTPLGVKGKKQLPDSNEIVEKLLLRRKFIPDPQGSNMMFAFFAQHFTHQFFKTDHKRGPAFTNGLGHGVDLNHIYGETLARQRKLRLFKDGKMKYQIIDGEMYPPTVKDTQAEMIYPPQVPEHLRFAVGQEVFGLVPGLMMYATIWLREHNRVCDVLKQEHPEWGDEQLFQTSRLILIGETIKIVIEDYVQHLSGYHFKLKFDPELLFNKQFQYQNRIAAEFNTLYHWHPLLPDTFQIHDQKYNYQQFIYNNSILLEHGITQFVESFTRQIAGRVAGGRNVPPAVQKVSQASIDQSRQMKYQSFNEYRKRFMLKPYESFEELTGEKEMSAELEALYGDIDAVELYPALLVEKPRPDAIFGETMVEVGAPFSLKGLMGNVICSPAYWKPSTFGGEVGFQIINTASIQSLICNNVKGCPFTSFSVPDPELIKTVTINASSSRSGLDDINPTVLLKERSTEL
No end group written: not given here.
measurementName: pIC50
Scale explanation: pIC50 corresponds to minus log10 of a concentration expressed in moles per litre.

Solved cases (5 shown):
GNPVGGVGHGTTGT [GT-14, GNPVGGVGHGTTGT] = 5.44
RLARAGLAQ [RQ-9, RLARAGLAQ] = 5.30
EQGFLPGPEESGR [ER-13, EQGFLPGPEESGR] = 5.51
GQLGEHGGAGMG [GG-12, GQLGEHGGAGMG] = 4.80
YGNPVGGVGH [YH-10, YGNPVGGVGH] = 4.79

# next sequence below
Query string: Tell me its pIC50 given GEHGGAGMGGGQFQPV [GV-16, GEHGGAGMGGGQFQPV] as the entry.
Result string: 4.52
